biological target: Jak2 (UniProt O60674); test: phosphorylation enrichment, bacterial display (enrichment ratio); higher = better substrate or ligand; peptides without Tyr show the background;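 also: 11-residue human phosphosite peptides and single-mutation variants displayed on the E. coli surface, counted by deep sequencing, each peptide's frequency after selection divided by its frequency in the unselected input library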;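 also: frequency after pTyr selection over input frequency; kinase dosed for 20-30% of maximal phosphorylation in three min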
Sequence (O60674 whole entry, looked up): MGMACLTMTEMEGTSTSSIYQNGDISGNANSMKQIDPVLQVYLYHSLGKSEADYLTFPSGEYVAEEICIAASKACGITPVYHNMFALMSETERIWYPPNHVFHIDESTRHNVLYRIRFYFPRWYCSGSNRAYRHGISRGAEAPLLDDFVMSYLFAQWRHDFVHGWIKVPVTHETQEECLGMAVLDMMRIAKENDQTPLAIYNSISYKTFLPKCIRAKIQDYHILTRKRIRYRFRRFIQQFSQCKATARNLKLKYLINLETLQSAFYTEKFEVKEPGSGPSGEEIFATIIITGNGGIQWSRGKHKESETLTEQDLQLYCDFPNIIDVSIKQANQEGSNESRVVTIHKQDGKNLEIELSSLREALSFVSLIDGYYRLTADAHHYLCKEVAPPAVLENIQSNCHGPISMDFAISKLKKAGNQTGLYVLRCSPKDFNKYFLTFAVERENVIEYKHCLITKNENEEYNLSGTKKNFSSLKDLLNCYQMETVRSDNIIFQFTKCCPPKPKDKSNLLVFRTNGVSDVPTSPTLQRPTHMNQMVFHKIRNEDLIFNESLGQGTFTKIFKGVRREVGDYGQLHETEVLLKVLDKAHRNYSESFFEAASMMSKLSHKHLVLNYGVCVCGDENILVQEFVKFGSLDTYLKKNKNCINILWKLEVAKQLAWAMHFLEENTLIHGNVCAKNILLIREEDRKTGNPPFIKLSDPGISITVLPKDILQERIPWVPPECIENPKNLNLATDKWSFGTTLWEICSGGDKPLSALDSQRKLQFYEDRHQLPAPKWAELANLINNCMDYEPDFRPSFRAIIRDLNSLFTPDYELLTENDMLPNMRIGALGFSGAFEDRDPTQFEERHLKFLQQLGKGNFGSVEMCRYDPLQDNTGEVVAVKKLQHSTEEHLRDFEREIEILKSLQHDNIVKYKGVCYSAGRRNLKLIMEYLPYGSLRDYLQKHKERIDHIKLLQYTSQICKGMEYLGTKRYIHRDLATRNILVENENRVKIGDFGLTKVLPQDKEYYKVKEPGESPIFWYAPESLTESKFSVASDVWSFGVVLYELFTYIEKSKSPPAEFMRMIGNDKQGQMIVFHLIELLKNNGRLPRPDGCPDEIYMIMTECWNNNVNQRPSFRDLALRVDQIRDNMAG
So basically: phosphorylation enrichment at 0.6 or higher? That is y. Lower than 0.6? That is n.

Some solved cases for reference:
construct_sequence | answer_label
FDFKKYGKGLR [ZNF445_Y433_YF] | n
TESALYGCTVV [KIAA1804_Y724_L729V] | y
LRNIDYHRLDG [ATRX_Y2083_Y2084H] | y
AKIDGYIISFR | y

Moving on to the next sequence.
Problem: I'd appreciate it if you could say whether PIGRKYKKVRF [F8_Y442_R437P] has phosphorylation enrichment at least equal to 0.6.
Result: n

* * *

test system: c-Abl (mouse); assay: phosphorylation enrichment, bacterial display (enrichment ratio); higher = better substrate or ligand; peptides without Tyr show the background
readout_label: phosphorylation enrichment
// no unit, no text: just the number

# annotated cases, reported phosphorylation enrichment shown
construct_sequence | phosphorylation enrichment
PANTVYSTVEI [SLAMF7_Y304] | 6.76
DFTSRYLSASD [PKHD1_Y828_N830S] | 0.546
RAILNYIASKF [GSTA3_Y74_YF] | 1.96
EHTTLYSNNST [KANSL1_Y223] | 0.487

Problem: Any idea what its phosphorylation enrichment is? The sequence is TDISLYPSGGT [TENM4_Y399_V396I]
Result: 0.528

Problem: Consider next the sequence IIWDSYTTNKV [GNB1_Y85] in the same way.
Result: 0.687

* * *

Measured phosphorylation enrichment, listed per entry for reference.
target: EPHB1 (UniProt P54762); assay: phosphorylation enrichment, bacterial display (enrichment ratio); higher = better substrate or ligand; peptides without Tyr show the background
Sequence (P54762 whole entry, looked up): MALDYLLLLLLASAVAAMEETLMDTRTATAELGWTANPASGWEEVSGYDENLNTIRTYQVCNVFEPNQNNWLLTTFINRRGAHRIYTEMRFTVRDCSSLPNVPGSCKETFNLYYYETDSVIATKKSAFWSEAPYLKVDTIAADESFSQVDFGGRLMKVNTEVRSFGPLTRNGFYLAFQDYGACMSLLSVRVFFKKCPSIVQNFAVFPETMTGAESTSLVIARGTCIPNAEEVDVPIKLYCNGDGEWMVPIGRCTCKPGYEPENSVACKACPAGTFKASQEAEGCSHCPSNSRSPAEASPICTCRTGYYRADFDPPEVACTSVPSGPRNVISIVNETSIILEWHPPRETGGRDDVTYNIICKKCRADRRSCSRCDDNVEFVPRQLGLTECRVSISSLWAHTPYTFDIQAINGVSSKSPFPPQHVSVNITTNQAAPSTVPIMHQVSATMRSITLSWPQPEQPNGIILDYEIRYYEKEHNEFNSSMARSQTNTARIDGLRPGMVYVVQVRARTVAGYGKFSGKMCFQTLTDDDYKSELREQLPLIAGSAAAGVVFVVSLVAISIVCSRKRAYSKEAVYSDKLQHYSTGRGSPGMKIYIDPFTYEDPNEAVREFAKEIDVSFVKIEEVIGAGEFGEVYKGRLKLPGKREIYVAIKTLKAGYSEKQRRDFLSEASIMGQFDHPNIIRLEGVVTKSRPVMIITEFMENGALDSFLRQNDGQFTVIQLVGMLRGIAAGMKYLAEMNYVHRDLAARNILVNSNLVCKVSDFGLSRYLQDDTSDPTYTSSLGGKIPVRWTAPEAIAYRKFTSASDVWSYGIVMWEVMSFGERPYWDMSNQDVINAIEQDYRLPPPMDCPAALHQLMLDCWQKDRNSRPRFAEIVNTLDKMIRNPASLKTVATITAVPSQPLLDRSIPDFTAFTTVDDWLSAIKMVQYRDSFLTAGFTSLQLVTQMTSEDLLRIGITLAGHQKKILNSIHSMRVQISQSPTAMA
// no unit, no text: just the number

construct_sequence | phosphorylation enrichment
EPYEVYRIVPE [IRF8_Y110_K108E] | 1.45
ERDTVYSSSGV [NELL2_Y350_N347D] | 0.435
NTGYYYDLYGG [PTPN11_Y63_D61Y] | 11.3

Problem: Any idea what its phosphorylation enrichment is? The sequence is VITDYYVDMKF [MPP4_Y567]
Result: 3.65

Problem: Consider next the sequence DPLLTYWFPPK [LMNA_Y481_R482W] in the same way.
Result: 12.6

* * *

Measured phosphorylation enrichment, listed per entry for reference.
target: Jak2 (UniProt O60674); test: phosphorylation enrichment, bacterial display (enrichment ratio); higher = better substrate or ligand; peptides without Tyr show the background
// no unit, no text: just the number

construct_sequence | reported
KVNKIYYPDFI [LIG3_Y767] | 0.68
FSDPSYVKQME [CDC5L_Y464_YF] | 0.704

Problem: Any idea what its phosphorylation enrichment is? The sequence is PAGSGYPAFLG [ATP6V1A_Y374_D371G_YF]
Result: 0.687

* * *

target: EPHB2 (UniProt P29323); assay: phosphorylation enrichment, bacterial display (enrichment ratio); higher = better substrate or ligand; peptides without Tyr show the background
Sequence (P29323 whole entry, looked up): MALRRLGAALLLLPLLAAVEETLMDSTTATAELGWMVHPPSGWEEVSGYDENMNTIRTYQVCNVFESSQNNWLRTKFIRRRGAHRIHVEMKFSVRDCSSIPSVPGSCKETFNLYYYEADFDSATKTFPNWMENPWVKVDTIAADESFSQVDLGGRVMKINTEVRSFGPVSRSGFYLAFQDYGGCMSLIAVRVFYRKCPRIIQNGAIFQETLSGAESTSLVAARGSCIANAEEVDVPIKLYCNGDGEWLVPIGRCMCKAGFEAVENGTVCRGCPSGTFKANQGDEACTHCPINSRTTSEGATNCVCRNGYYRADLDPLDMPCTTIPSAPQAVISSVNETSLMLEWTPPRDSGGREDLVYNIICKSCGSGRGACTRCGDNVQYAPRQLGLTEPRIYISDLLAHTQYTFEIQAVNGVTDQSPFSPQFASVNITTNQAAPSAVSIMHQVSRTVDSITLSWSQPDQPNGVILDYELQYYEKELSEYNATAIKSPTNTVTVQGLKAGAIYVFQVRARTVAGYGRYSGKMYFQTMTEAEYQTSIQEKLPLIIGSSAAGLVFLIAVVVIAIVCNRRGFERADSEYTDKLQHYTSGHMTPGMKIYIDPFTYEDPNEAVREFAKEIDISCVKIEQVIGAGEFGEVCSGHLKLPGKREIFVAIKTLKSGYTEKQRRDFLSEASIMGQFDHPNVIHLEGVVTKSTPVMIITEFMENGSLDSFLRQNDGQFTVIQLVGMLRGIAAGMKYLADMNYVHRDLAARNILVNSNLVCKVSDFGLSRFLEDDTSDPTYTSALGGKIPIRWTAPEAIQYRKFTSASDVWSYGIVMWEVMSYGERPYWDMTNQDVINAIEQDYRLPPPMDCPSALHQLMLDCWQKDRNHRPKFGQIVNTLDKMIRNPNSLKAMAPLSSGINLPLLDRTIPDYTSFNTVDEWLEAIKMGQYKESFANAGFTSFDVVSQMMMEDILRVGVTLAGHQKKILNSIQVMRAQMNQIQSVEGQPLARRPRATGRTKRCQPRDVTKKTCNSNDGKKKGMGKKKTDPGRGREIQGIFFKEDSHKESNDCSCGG
readout_label: phosphorylation enrichment
// no unit, no text: just the number

# annotated cases, reported phosphorylation enrichment shown
construct_sequence | phosphorylation enrichment
KRGIDYILRHM [FRMD1_Y225] | 0.463
RLSVDYGKKSK [TUBA3E_Y161_S162G] | 0.671
VKMLEYRGKDV [CASP5_Y74_L75R] | 0.416
VTRLRYPVCFG [ITK_Y336] | 0.543

Problem: Any idea what its phosphorylation enrichment is? The sequence is EPTPSYEVGQR [TSC2_Y1788_G1787S]
Result: 0.426

Problem: Consider next the sequence ELCSEYHKSRK [SPINK5_Y440_R441H] in the same way.
Result: 0.412

Problem: Consider next the sequence HMRLRYLAAEE [CEP120_Y884_Q879H] in the same way.
Result: 0.552

Problem: Consider next the sequence PMQMPYDSRWE [PDGFRA_Y582_L580M] in the same way.
Result: 0.801

Problem: Consider next the sequence REHTVYGEPRK [MAGEA4_Y240] in the same way.
Result: 0.687

Problem: Consider next the sequence IKSSIYDNRNE [ARAP2_Y380_K384N] in the same way.
Result: 0.502

Problem: Consider next the sequence QGCSIYKDFFR [PLA2G2D_Y82_YF] in the same way.
Result: 1.18

Problem: Consider next the sequence AALSAYAAQRP [PTPRN2_Y249] in the same way.
Result: 0.353

Problem: Consider next the sequence GGYTCCCDGKK [PROS1_Y266_Y266C] in the same way.
Result: 0.819

Problem: Consider next the sequence NLMPAYYKCIQ [CYP21A2_Y190] in the same way.
Result: 0.496

Problem: Consider next the sequence EAEPFYCSLRD [NPHS1_Y1139_R1140C_YF] in the same way.
Result: 1.27

* * *

molecular target: EPHB2 (UniProt P29323); assay: phosphorylation enrichment, bacterial display (enrichment ratio); higher = better substrate or ligand; peptides without Tyr show the background
So basically: phosphorylation enrichment at 0.5 or higher? That is true. Lower than 0.5? That is false.

Some solved cases for reference:
construct_sequence | answer_label
WTAHSYRMGST [ARHGEF7_Y785] | false
IGSHAYGDQFR [IDH1_Y135_R132S_YF] | false
FSMGCYEFSLG [HMGCL_Y198_I200F_YF] | true
NELTFYCCKKD [CD59_Y87_YF] | true
LLKAGYQGVLR [TTPA_Y100_H101Q] | false

Problem: I'd appreciate it if you could say whether DSASAYADEVK [ETNPPL_Y189] has phosphorylation enrichment at least equal to 0.5.
Result: true

Problem: Consider next the sequence FVSIVYNDFGE [TSC2_Y1650_S1653F] in the same way.
Result: true

Problem: Consider next the sequence LNSFIYSLRNR [OR1A1_Y288_P285S] in the same way.
Result: true

Problem: Consider next the sequence ILGRFYERGSI [PAX5_Y73_T75R_YF] in the same way.
Result: false

Problem: Consider next the sequence QNKEDYAGLKE [GSTO1_Y139] in the same way.
Result: true

Problem: Consider next the sequence LTERDYSFVTT [ACTG2_Y199_G198D] in the same way.
Result: true

Problem: Consider next the sequence GGQVFHNSEFG [FLT4_Y1333_Y1333H_YF] in the same way.
Result: false

Problem: Consider next the sequence RRNSPYSQTMK [TET2_Y819] in the same way.
Result: true

Problem: Consider next the sequence AIYWRYSKFFD [SH3PXD2B_Y45_R43W] in the same way.
Result: true

Problem: Consider next the sequence WKEIEYEVVRD [CPS1_Y634] in the same way.
Result: true

Problem: Consider next the sequence DPYHVYIKNRV [KCNE3_Y95] in the same way.
Result: true

Problem: Consider next the sequence GLNKDYRMVVN [HINT1_Y94_G93D] in the same way.
Result: false

Problem: Consider next the sequence ADFPDCKFRPR [SOX11_Y116_Y116C_YF] in the same way.
Result: false

Problem: Consider next the sequence RRKRAYVEIEY [MAK16_Y282_Q277R] in the same way.
Result: true

Problem: Consider next the sequence QRPFVYFFSFL [PTEN_Y176_R173P_YF] in the same way.
Result: true

* * *

test system: AncSZ; assay: phosphorylation enrichment, bacterial display (enrichment ratio); higher = better substrate or ligand; peptides without Tyr show the background
Measured phosphorylation enrichment, listed per entry for reference.
// no unit, no text: just the number

# annotated cases, reported phosphorylation enrichment shown
construct_sequence | subject_of_test | phosphorylation enrichment
GMIQAYSSSQR [DES_Y5_S2I] | AncSZ | 0.485
FPDFVYKCIKA [DPYSL2_Y479_R481C] | AncSZ | 1.35
LGSVVYAQSKE [KCNQ2_Y226_H228Q] | AncSZ | 1.61

Problem: Any idea what its phosphorylation enrichment is? The sequence is GMTLSYLFWEP [NDUFS8_Y74_R77W]
Result: 1.85

Problem: Consider next the sequence WTAHSYRMGST [ARHGEF7_Y785] in the same way.
Result: 0.642

Problem: Consider next the sequence RIAFQYGDTDL [MYBPC3_Y340_V342D] in the same way.
Result: 1.1

Problem: Consider next the sequence RTIPDYTSFNT [EPHB2_Y912] in the same way.
Result: 0.893

Problem: Consider next the sequence KEAALYPHLLP [SQSTM1_Y383_P387L] in the same way.
Result: 0.648

* * *

Measured phosphorylation enrichment, listed per entry for reference.
target: FGFR3 (UniProt P22607); test: phosphorylation enrichment, bacterial display (enrichment ratio); higher = better substrate or ligand; peptides without Tyr show the background
Sequence (P22607 whole entry, looked up): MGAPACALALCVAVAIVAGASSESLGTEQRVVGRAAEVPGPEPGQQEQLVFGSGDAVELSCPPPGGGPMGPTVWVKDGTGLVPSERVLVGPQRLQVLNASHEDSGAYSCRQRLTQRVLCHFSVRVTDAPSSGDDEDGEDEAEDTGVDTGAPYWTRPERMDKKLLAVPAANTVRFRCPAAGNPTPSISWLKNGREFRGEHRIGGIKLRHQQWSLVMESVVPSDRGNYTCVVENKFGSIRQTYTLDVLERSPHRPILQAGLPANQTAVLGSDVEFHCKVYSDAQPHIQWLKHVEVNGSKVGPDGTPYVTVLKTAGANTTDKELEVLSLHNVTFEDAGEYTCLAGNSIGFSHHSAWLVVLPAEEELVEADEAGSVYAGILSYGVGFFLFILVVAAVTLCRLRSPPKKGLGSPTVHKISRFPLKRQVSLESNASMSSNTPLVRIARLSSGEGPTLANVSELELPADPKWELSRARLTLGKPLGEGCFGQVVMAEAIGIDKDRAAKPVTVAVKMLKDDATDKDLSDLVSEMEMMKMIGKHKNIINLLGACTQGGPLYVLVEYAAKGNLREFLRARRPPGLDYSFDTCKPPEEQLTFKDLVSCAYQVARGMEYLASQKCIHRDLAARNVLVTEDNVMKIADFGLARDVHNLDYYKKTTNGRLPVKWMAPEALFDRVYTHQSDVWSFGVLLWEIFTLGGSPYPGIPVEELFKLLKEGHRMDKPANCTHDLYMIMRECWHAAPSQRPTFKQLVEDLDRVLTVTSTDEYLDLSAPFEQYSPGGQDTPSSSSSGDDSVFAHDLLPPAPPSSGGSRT
// no unit, no text: just the number

# annotated cases, reported phosphorylation enrichment shown
construct_sequence | phosphorylation enrichment
QNKEDYDGLKE [GSTO1_Y139_A140D] | 1.3
RIVTTYIRERE [DNM2_Y463] | 0.682
ELTSVYDSRAR [SENP1_Y349] | 0.574
FPMLNYKDIRK [CFAP221_Y798] | 0.408
NTGYYYDLYGG [PTPN11_Y63_D61Y] | 11.3

Problem: Lab request: please report phosphorylation enrichment under test system FGFR3 (UniProt P22607) for DVQNEYDSNHC [ZFYVE16_Y36_A35E]
Result: 0.665

Problem: Consider next the sequence AEARMYGVLPW [PLP1_Y207_D203E] in the same way.
Result: 0.559
